Just for reference, patent US9549918B2 is where these values come from.

assay method text: Ability of stabilizing agents to dissolve in the melted PEG/Poloxamer vehicle
Assay type: physicochemical
conditions: 0.5% w/w of substance mixed with PEG/Poloxamer at 80° C.
attribute measured: Physical state in vehicle

Illustrative cases are given below, each with its answer.
| compound | Physical state in vehicle |
| --- | --- |
| O=C([O-])CN(CCN(CC(=O)[O-])CC(=O)[O-])CC(=O)[O-].[Ca+2].[Na+].[Na+] [EDTA, Ca, Na2] | Not dissolved |
| O=C([O-])CN(CCN(CC(=O)[O-])CC(=O)O)CC(=O)[O-].[Na+].[Na+].[Na+] [EDTA, Na3] | Not dissolved |
| O.O=C([O-])C(O)C(O)C(=O)[O-].O=C([O-])C(O)C(O)C(=O)[O-].[K+].[K+].[K+].[K+] (centres unmarked) [Tartaric acid, K2, ½H2O] | Not dissolved |
| O=C(O)CN(CCN(CC(=O)O)CC(=O)O)CC(=O)O [Ethylene di-amine tetra acetic acid] | Not dissolved |
| N.N.O=C(O)C(O)C(O)C(=O)O (centres unmarked) [Tartaric acid, (NH4)2] | Not dissolved |
| N.N.N.O=C(O)CC(O)(CC(=O)O)C(=O)O [Citric acid, (NH4)3] | Not dissolved |

Lab note: next compound to report on.
Record request: Physical state in vehicle value, item O=C([O-])C(O)C(O)C(=O)O.[K+] (centres unmarked) [Tartaric acid, K]
Not dissolved

###

assay method text: Ability of stabilizing agents to dissolve in the melted PEG/Poloxamer vehicle
Assay type: physicochemical
conditions: 0.5% w/w of substance mixed with PEG/Poloxamer at 80° C.
attribute measured: Physical state in vehicle

Illustrative cases are given below, each with its answer.
| compound | Physical state in vehicle |
| --- | --- |
| O=C(O)C(O)C(O)C(=O)O (stereo not drawn) | Dissolved |
| Oc1cccc2cccnc12 [8-hydroxychinoline 0.005%, ½SO4, ½H2O, 8-hydroxychinoline] | Not dissolved |
| O=C(O)CC(O)(CC(=O)O)C(=O)O | Dissolved |
| N.N.O=C(O)CC(O)(CC(=O)O)C(=O)O | Not dissolved |
| O.O=C([O-])CN(CCN(CC(=O)[O-])CC(=O)[O-])CCN(CC(=O)[O-])CC(=O)[O-].[Ca+2].[Na+].[Na+].[Na+] | Not dissolved |

Record request: Physical state in vehicle value, item "O=C([O-])CC(O)(CC(=O)[O-])C(=O)[O-].[Na+].[Na+].[Na+]"
Not dissolved
